Quick reference for MIC among some molecules
- Test system: M. pneumoniae wild type (laboratory strain M129)
- EXPERIMENT SUMMARY: Mpn growth inhibition in 96-well plates (growth index A450/A560), wild type strain
- Type: cell-based, Mycoplasma pneumoniae
- EXPERIMENTAL SETUP: Mycoplasmoides pneumoniae, read-out: Wild type MIC
Dear colleague, please return just the value in µg/mL, with no unit written.

Observe how each entry below is paired with its result.
{"columns": ["MOLECULE", "ASSAY ENDPOINT", "UNITS", "VALUE"],
 "data": [
  ["Nc1nc2c(ncn2COCCO)c(=O)[nH]1 [Acyclovir]", "MIC", "µg/mL", 15.6],
  ["Nc1nc(=O)[nH]cc1F [5-fluorocytosine]", "MIC", "µg/mL", 31.2],
  ["Nc1nc(O)c2ncn(COC(CO)CO)c2n1 [Gancyclovir]", "MIC", "µg/mL", 7.8]
]}

Now let's try a different one.
**Q:** Identify measured MIC associated with Nc1nc2nc[nH]c2c(=S)[nH]1 [6-thioguanine (6-TG), 6-thioguanine]
**A:** 0.2
